Where do these numbers come from? They come from a melting point compilation (Tetko et al.; mined from patent text by program, amines drawn as free bases though some values may be those of a salt).

observationType: melting point

Field: example entries. Status: answers known.
Cc1cc(C(F)(F)F)nn1CC(=O)N1CCC(c2nc(NC(=O)Nc3ccccc3)cs2)CC1 : 193 °C
O=C1CCCN1c1cccc(CO)c1 : 120 to 121 °C
CN1C(=O)c2cccnc2N(CC(=O)OC(C)(C)C)c2ccccc21 : 64 to 65 °C

IN: Fill blank: measured melting point of the compound O=C1CN(CCN2CC(=O)N(CN3CCCC3)C(=O)C2)CC(=O)N1CN1CCCC1 is ____.
OUT: 150 to 155 °C

IN: Fill blank: measured melting point of the compound NC(=O)NN=Cc1ccc(N(c2ccccc2)c2ccccc2)cc1 is ____.
OUT: 106 to 114 °C

IN: Fill blank: measured melting point of the compound CCSc1ccc(Cl)c(OS(C)(=O)=O)n1 is ____.
OUT: 40 to 41 °C

IN: Fill blank: measured melting point of the compound O=C(Oc1cc([N+](=O)[O-])c(F)cc1Cl)Oc1cc([N+](=O)[O-])c(F)cc1Cl is ____.
OUT: 165 to 166 °C

IN: Fill blank: measured melting point of the compound CN(C)C(=O)Nc1ccc(S(=O)(=O)CCc2ccccc2)c(Cl)c1 is ____.
OUT: 136 to 138 °C

IN: Fill blank: measured melting point of the compound CCC(CC)O[C@@H]1C=C(C(=O)O)C[C@H](CC=O)[C@H]1NC(C)=O is ____.
OUT: 70 to 71 °C

IN: Fill blank: measured melting point of the compound CSc1nnc(Sc2ncnc3c(C)csc23)s1 is ____.
OUT: 163 to 166 °C

* * *

Listing of recorded melting point by entry.

Field: example entries. Status: answers known.
Cc1c[nH]c(C)c1CCC(=O)O : 134 to 136 °C
N#Cc1cc(Cl)c(NC(=O)C(F)(F)F)c(Cl)c1 : 134 to 136 °C
Cc1ccc(Cl)c(OCC(O)CNCCNC(=O)NCCCO[N+](=O)[O-])c1 (stereo not drawn) : 109 to 111 °C
CC(C)(C)OC(=O)CS : 72 °C

IN: Fill blank: measured melting point of the compound c1ccc(CC23CCN(CC2)CC3)cc1 is ____.
OUT: 48 °C

IN: Fill blank: measured melting point of the compound N#Cc1cc(N)c(F)c(-c2ccc(Cl)cc2)n1 is ____.
OUT: 185 to 188 °C

IN: Fill blank: measured melting point of the compound BrCc1cc2ccc3ccccc3c2s1 is ____.
OUT: 75 to 78 °C

IN: Fill blank: measured melting point of the compound CC#CCOc1ccc(OCC(=O)O)cc1 is ____.
OUT: 114 to 116 °C

IN: Fill blank: measured melting point of the compound O=C(NCCCC(=O)N1CCCC1)c1cc(Br)no1 is ____.
OUT: 120 to 121 °C

* * *

observationType: melting point

Field: example entries. Status: answers known.
CCOC(=O)CCNC(=O)Nc1ccc([N+](=O)[O-])cc1O : 115 to 116 °C
COc1cc2c(cc1F)CCN=C2C1(c2ccccc2Cl)CC1 : 172 to 176 °C
CC[C@@H](C)[C@H](N)C(=O)N1CC(F)(F)C(F)(F)C1 : > 250 °C

IN: Fill blank: measured melting point of the compound CC(c1ccc(Oc2ccccc2)cc1)N(O)C(N)=O (stereo not given) is ____.
OUT: 118 to 119 °C

IN: Fill blank: measured melting point of the compound CS(=O)c1ccc(C2=C(c3cccc(F)c3)C(=O)C(C)(C)O2)cc1F (stereo not given) is ____.
OUT: 148 to 149 °C

IN: Fill blank: measured melting point of the compound CCCc1c(OCCCOc2ccc(C(=O)CCC(=O)O)cc2F)ccc(C(C)=O)c1O is ____.
OUT: 142 to 144 °C

IN: Fill blank: measured melting point of the compound CNS(=O)(=O)c1cc(-n2nc3ccc(Cl)cn3c2=O)c(F)cc1C#N is ____.
OUT: 154 to 157 °C

IN: Fill blank: measured melting point of the compound CC1(C)OC(c2ccc(S(N)(=O)=O)c(Br)c2)=C(c2ccccc2)C1=O is ____.
OUT: 128 to 132 °C

IN: Fill blank: measured melting point of the compound CN(C)C(=O)c1ccncc1-c1nc(-c2ccc(Cl)cc2)cs1 is ____.
OUT: 195 °C

IN: Fill blank: measured melting point of the compound CCN(CC)C(=O)n1cnc(Sc2c(C)cc(C)c(C)c2OC)n1 is ____.
OUT: 138 to 139 °C

* * *

Listing of recorded melting point by entry.

Field: example entries. Status: answers known.
CN(CCSc1ccc(C=C2SC(=O)NC2=O)cc1)c1nc2ccccc2o1 : 189 °C
NC(=O)CCCSCc1nccc(NC(N)=NCC(F)(F)F)n1 : 126 to 128 °C
OCCC1CCc2cc3ccccc3n2C1 (configuration not stated) : 70 to 72 °C
COCC(=S)Nc1c(Cl)c(Cl)cc2nc(OC)c(OC)nc12 : 198 to 200 °C
COc1cc(S(C)=O)ccc1-c1nc2ccc(C(C)(C)CNS(C)(=O)=O)cc2[nH]1 (configuration not stated) : 126 to 128 °C
COc1ccc(S(N)(=O)=O)cc1C(=O)C(C)N=[N+]=[N-] (configuration not stated) : 113 to 114 °C
CCCCCOc1cc(C(=O)O)cc(N)c1C(=O)c1ccccc1 : 168 to 170 °C
COCc1c(NC2CC2)c([N+](=O)[O-])cc(F)c1N1CCN(C)CC1 : 89 to 90 °C
CCNC(=O)c1c([Si](C)(C)C)ccc(C(C)=O)c1Cl : 78 to 80 °C
COc1ccc(Cn2nc(-n3cnn(Cc4ccc(F)cc4)c3=O)cc2C(=O)NCc2cccnc2)cc1 : 210 to 211 °C

IN: Fill blank: measured melting point of the molecule CCN(CC)c1ccc2c(c1)OC(C(F)(F)F)C(C(=O)O)=C2 (configuration not stated) is ____.
OUT: 214 to 215 °C

IN: Fill blank: measured melting point of the molecule CC1CCC2=NNC(=O)CC2C1 (configuration not stated) is ____.
OUT: 116 to 118 °C

IN: Fill blank: measured melting point of the molecule Clc1nc(Nc2ccccc2)c2ccccc2n1 is ____.
OUT: 194 to 196 °C

IN: Fill blank: measured melting point of the molecule COc1ccc(S(=O)(=O)N2c3cc(F)ccc3-c3ccc(F)cc3C2C)cc1 (configuration not stated) is ____.
OUT: 141 to 143 °C

IN: Fill blank: measured melting point of the molecule CC1=CC(=O)C(C)S(=O)(=O)N1C (configuration not stated) is ____.
OUT: 73 to 75 °C

IN: Fill blank: measured melting point of the molecule O=C1CCCc2nc3ccccc3c(NCc3ccc(F)cc3)c21 is ____.
OUT: 158 to 159 °C

IN: Fill blank: measured melting point of the molecule CCCN(CCCc1c[nH]c2ccc(F)cc12)C1COc2c(C(N)=O)ccc(F)c2C1 (configuration not stated) is ____.
OUT: 123 °C

IN: Fill blank: measured melting point of the molecule CCn1cc(C(=O)O)c(=O)c2cc(F)c(N3CCSCC3)nc21 is ____.
OUT: 241 to 243 °C

IN: Fill blank: measured melting point of the molecule CC1CC(=O)N(CCO)N=C1c1ccc2c(c1)CCC(=O)N2C (configuration not stated) is ____.
OUT: 171 to 173 °C

IN: Fill blank: measured melting point of the molecule CS(=O)(=O)c1ccc(-c2ccc(C(F)F)n2-c2ccc(F)cc2)cc1 is ____.
OUT: 111 to 112 °C

IN: Fill blank: measured melting point of the molecule CCOC(=O)C1(c2cccs2)CC(CC)=NNC1C (configuration not stated) is ____.
OUT: 127 °C

IN: Fill blank: measured melting point of the molecule Cc1ccc(C(=O)NCCCCOc2ccc(-n3ccnc3)cc2)cc1 is ____.
OUT: 128 to 130 °C

* * *

Listing of recorded melting point by entry.

Field: example entries. Status: answers known.
O=C1OCc2ncccc21 : 113 to 118 °C
Cc1nn(-c2ccccn2)c2nc3ccccc3c(OCC(C)C)c12 : 117 to 120 °C
CC1(C)CC(=O)Nc2cc3nc(-c4ccc(C(N)=O)cc4)[nH]c3cc21 : 317 to 319 °C
COC(=O)c1ncc[nH]1 : 187 to 188 °C
O=c1[nH]c(=O)n(CCCCCCl)c2ccccc12 : 162 to 163 °C
O=Cc1c(Cl)c(Cl)c(Cl)c(Cl)c1Cl : 201 to 203 °C
CC(=O)Nc1ccc(S(=O)(=O)Nc2ccc(S(=O)(=O)C=CC#N)cc2)cc1 : 204 to 205 °C
O=C1CCC(N2Cc3c(OCc4ccc(CN5CCN(C(=O)C6CCCCC6)CC5)cc4)cccc3C2=O)C(=O)N1 (stereo not drawn) : 215 to 217 °C

IN: Fill blank: measured melting point of the compound O=C(Nc1cc(-c2ccnc3c(C(=O)c4cccs4)cnn23)ccc1F)c1ccccc1F is ____.
OUT: 214 to 216 °C

IN: Fill blank: measured melting point of the compound COC(=O)NCCc1ccc(OCC(O)CNC(C)C)nc1 (stereo not drawn) is ____.
OUT: 97 to 99 °C

IN: Fill blank: measured melting point of the compound O=C1c2ccccc2C(Cc2ccnc(Br)c2)(Cc2ccnc(Br)c2)c2ccccc21 is ____.
OUT: 182 to 183 °C
